# experimentalTarget: T1, VV B5 monomer protein (Wyeth Vaccinia strain B5 with C-terminal AVI tag and HIS6 tag) (Vaccinia virus, Wyeth strain, UniProt O57254 18-279)
# T1 construct: also called B5 protein; VV B5 protein
# protocolSummary: BLI (Octet), antibody on AHC sensor, B5 monomer analyte

{"binder": "A048-H1L1 (antibody, V domains shown) VH: EVQLLESGGGLVQPGGSLRLSCAASGFSFSSSYYMCWVRQAPGKGLEWIACIYTSSGSAYYANWAKGRFTISRDNSKNTLYLQMNSLRAEDTAVYYCVRNAVGSSYYLYLWGQGTLVTVSS VL: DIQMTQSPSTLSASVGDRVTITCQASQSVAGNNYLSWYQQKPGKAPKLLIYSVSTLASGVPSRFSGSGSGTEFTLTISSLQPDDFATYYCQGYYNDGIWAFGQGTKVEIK", "koff / s⁻¹": 0.000763}
{"binder": "A048-H1L3 (antibody, V domains shown) VH: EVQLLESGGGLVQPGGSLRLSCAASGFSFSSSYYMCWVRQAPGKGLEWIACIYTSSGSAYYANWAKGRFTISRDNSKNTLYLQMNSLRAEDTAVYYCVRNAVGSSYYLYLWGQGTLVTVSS VL: DIQMTQSPSSLSASVGDRVTITCQASQSVAGNNYLSWYQQKPGKVPKLLIYSVSTLASGVPSRFSGSGSGTDFTLTISSLQPEDVATYYCQGYYNDGIWAFGQGTKVEIK", "koff / s⁻¹": 0.000846}
{"binder": "A048-H3L3 (antibody, V domains shown) VH: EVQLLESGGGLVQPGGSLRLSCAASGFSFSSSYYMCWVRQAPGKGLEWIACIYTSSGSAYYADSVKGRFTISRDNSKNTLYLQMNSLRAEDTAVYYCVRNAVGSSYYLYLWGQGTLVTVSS VL: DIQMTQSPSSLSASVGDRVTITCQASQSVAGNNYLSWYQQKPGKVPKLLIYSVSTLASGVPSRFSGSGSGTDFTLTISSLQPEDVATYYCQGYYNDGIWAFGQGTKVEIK", "koff / s⁻¹": 0.000733}
